Data origin, for the record: ChEMBL document CHEMBL3988442

Recorded measurements of Percent Effect, one per entry
Test system: Trypanosoma cruzi
EXPERIMENT DESCRIPTION: Trypanosoma cruzi phosphomannomutase and mannose-1-phosphate guanylyltransferase assay
Assay type: functional
Set-up: scale not given: direction of the effect not stated beside the values
RECORDED CONDITIONS: 10 µM
Please state the figure in %; there is no need to write the unit.

Requested field: Percent Effect. Item: CN(C)CCOCC1CN(CC2CCOCC2)Cc2nnn(C)c21 (configuration not stated)
-5.96

So what's the measured Percent Effect for this one? `Cc1nnc(N2CC[C@H](OCC3CC3)[C@@H](Cc3ccccc3)C2)s1`
5.99

Please report the recorded Percent Effect for Cc1cc(C)n(CC2CCCN2C(=O)c2ccc3c(c2)OCO3)n1 (configuration not stated) .
2.15

Query (compound): CC(O)CN1CCN(Cc2csc(-c3ncccn3)n2)CC1 (configuration not stated) ; field requested: Percent Effect
-3.02

Which Percent Effect is reported for this compound? CC(C(=O)NCCOc1ccc2c(c1)OCO2)n1cncn1 (configuration not stated)
-2.17

Returns the measured Percent Effect for the input compound. Input: `COc1cccc(CN(C)C(=O)CN2CC(n3nc(C)cc3C)C2)c1`
1.27

Please report the recorded Percent Effect for Cc1oncc1C(=O)N1CCC2(CC1)CC(c1ccccc1)C(=O)N2C (configuration not stated) .
3.28

Field request: Percent Effect | item: `COc1ccc(S(=O)(=O)NCc2cccnc2N(C)C)cc1F`
2.74

// query Percent Effect value for entry Cc1noc(C)c1C1CCCN1C(=O)CN1CC2(CCNCC2)OC1=O (configuration not stated)
-1.35

I would be grateful if you could share the reported Percent Effect for Fc1ccc2c(c1)C(NCc1nnc3n1CCCCC3)CCCO2 (configuration not stated) .
7.92

---

TEST SYSTEM: Tyrosyl-tRNA synthetase, putative (Trypanosoma cruzi (strain CL Brener))
Sequence (whole entry): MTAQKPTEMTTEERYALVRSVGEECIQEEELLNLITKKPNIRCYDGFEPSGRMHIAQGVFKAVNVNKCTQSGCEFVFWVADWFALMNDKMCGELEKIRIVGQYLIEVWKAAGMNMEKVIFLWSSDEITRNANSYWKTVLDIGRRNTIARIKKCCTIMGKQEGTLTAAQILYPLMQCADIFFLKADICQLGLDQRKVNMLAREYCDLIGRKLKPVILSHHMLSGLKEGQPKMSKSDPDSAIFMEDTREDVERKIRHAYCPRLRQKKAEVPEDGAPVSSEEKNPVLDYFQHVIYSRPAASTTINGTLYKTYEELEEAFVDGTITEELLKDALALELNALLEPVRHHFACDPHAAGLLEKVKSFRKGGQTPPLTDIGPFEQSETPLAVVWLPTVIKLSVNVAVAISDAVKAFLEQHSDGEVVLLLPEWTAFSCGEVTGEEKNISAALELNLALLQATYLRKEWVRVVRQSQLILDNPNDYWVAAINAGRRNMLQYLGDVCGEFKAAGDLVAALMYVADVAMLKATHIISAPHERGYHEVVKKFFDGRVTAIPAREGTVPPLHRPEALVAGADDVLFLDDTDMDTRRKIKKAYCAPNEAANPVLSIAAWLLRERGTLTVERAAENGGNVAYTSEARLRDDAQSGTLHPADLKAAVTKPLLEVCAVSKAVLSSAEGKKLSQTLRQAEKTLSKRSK
EXPERIMENT DESCRIPTION: Trypanosoma cruzi tyrosyl tRNA synthetase (TcYRS) SOP
Assay type: functional
Parameters: scale not given: direction of the effect not stated beside the values
RECORDED CONDITIONS: 30 µM
MEASURED QUANTITY: Percent Effect (%)
Field format: number, assumed %, no unit text.

>  <MOLECULE>
O=c1[nH]c2c(c(=O)n1C1CCCCC1)CCC2NCCc1ccccc1 (stereo not drawn)

>  <Percent Effect (%)>
0

$$$$

Now consider the entry below.
Could you share which Percent Effect value was measured for `Cc1ncoc1C(=O)N1C[C@H]2CCC[C@@]2(COCC2CCOCC2)C1` ?
7.69

---

TEST SYSTEM: Proteasome subunit beta (Trypanosoma cruzi)
EXPERIMENT DESCRIPTION: Trypanosoma cruzi proteasome chymotrypsin-like activity (TcProtChymo) assay. Note: in the data most compounds retested in dose-response had high values.
Type: functional
Set-up: scale not given: direction of the effect not stated beside the values
RECORDED CONDITIONS: 9.37 µM
Reported values of Percent Effect for individual entries
Supply the numeric figure in %, leaving out any unit text.

Below: 8 molecules and their reported Percent Effect.
>  <MOLECULE>
O=C(CCC1CCCC1)NCCn1nc(C2CCNC2)c2nccnc21 (stereo not given)

>  <DISPLAY UNIT>
%

>  <Percent Effect>
17.6

$$$$
>  <MOLECULE>
COc1ccc(NC(=O)NC(C)c2nc[nH]n2)cc1 (stereo not given)

>  <DISPLAY UNIT>
%

>  <Percent Effect>
17.9

$$$$
>  <MOLECULE>
O=C1[C@H]2CN(Cc3nccs3)C[C@H]2CN1c1ccsc1

>  <DISPLAY UNIT>
%

>  <Percent Effect>
12.4

$$$$
>  <MOLECULE>
CC(C)C(C(=O)N1CCC(Nc2cccnn2)CC1)n1cncn1 (stereo not given)

>  <DISPLAY UNIT>
%

>  <Percent Effect>
5.59

$$$$
>  <MOLECULE>
CN(C)C(=O)COCc1cncc2c1CCN(Cc1cnn(C)c1)C2

>  <DISPLAY UNIT>
%

>  <Percent Effect>
11.8

$$$$
>  <MOLECULE>
O=C(Cn1cc(C(=O)O)ccc1=O)Nc1ccc(F)cc1Cl

>  <DISPLAY UNIT>
%

>  <Percent Effect>
11.5

$$$$
>  <MOLECULE>
CN(C)c1ccc(C(=O)N2CCN(C(=O)N3CCCCC3)CC2)nn1

>  <DISPLAY UNIT>
%

>  <Percent Effect>
4.56

$$$$
>  <MOLECULE>
CCN1CCN(C2CCN(Cc3nnc(C(C)(C)C)o3)CC2)C1=O

>  <DISPLAY UNIT>
%

>  <Percent Effect>
10.3

$$$$

Looking for the measured Percent Effect of Clc1ccc(CN2CCCC(Cn3cncn3)C2)c2ncccc12 (stereo not given) , can you help?
12

Using the record for CCCc1n[nH]c(C2CN(Cc3nnc(C4CC4)o3)CCO2)n1 (stereo not given) , report its Percent Effect.
-0.409

I have this molecule here, `Cc1cc(=O)n(CC(=O)NCCC(C)C)c(-c2cccc(Cl)c2)n1` , and I need its recorded Percent Effect.
6.49

Reported Percent Effect for CC(NC(=O)NCCCO)c1ccc2c(c1)OCCO2 (stereo not given) : what is it?
14.2

Would you mind telling me what Percent Effect value was observed for `CNC(=O)[C@@H]1C[C@H]2CN(C(=O)c3ccco3)C[C@H]2N1C` ?
3.76

Given `FC(F)(F)COCCN1CCN(c2ccc3nncn3n2)CC1` , state its recorded Percent Effect.
2.87

Form field: reported Percent Effect of `O=C(Cc1ccc2c(c1)OCCO2)NC1CCCC1`
5.74

---

TEST SYSTEM: Protein translocase subunit SecA (Escherichia coli (strain K12)) (UniProt P10408)
Sequence (P10408 whole entry): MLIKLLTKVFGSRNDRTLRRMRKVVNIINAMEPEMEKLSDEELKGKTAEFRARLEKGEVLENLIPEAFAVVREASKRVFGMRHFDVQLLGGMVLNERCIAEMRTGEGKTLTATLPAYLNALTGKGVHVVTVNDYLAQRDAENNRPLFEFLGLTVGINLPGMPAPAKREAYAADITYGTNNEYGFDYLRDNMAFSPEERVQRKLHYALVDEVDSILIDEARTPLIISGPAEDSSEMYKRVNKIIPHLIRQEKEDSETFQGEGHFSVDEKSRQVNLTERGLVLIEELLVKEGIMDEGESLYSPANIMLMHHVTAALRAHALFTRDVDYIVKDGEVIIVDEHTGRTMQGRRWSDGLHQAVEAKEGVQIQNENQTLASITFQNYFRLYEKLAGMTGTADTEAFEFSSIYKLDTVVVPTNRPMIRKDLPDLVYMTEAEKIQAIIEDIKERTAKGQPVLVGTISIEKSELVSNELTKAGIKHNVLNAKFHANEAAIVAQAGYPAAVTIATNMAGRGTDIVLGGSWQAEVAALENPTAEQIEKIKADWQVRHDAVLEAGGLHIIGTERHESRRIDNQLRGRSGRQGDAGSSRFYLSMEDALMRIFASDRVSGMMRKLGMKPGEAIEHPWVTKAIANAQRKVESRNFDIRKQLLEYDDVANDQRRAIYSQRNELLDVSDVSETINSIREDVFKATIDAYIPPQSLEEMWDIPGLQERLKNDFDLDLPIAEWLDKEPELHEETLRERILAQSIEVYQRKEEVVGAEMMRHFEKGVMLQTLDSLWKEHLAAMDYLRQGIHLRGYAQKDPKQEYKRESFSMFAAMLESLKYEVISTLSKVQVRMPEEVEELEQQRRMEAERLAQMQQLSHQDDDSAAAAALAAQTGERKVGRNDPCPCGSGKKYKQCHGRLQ
EXPERIMENT DESCRIPTION: Assay to Identify E. coli SecA ATPase Inhibitors
Format: functional
Parameters: scale not given: direction of the effect not stated beside the values
RECORDED CONDITIONS: 30 µM
Entries with a potency or affinity are not part of this list.
MEASURED QUANTITY: Percent Effect (%)
Your answer should be a plain number; it is taken to be in %.

Return reported Percent Effect; argument: `O=C1N(c2ccccc2)Cc2nc(=O)[nH]n21`
-6.16

What does the record list as Percent Effect for Cc1ccc(CN(C)C(=O)CN2CCOC(Cn3cncn3)C2)o1 (configuration not stated) ?
1.63

# Percent Effect lookup, item `Cc1n[nH]cc1CNc1ccc2c(c1)N(C(=O)OC(C)(C)C)CCC2`
-6.86

Reported Percent Effect, molecule `CCc1nc(COc2ccc(OCc3cnn(C)c3)cc2)no1` : ____
-3.52

What measured Percent Effect goes with `CCO[C@H]1CO[C@@]2(CCCN(Cc3nc(C)cs3)C2)C1` ?
-0.479

Which Percent Effect is listed for `O=C(NCCN1CCCc2ccccc21)c1scnc1Cl` ?
-4.96

Could you tell me which Percent Effect is on file for `c1cnc2c(C3CCN(Cc4ccsc4)CC3)n[nH]c2n1` ?
-4.33

---

Here the recorded Percent Effect is given for each entry.
TEST SYSTEM: Sialic acid-binding Ig-like lectin 9 (Homo sapiens) (UniProt Q9Y336)
Sequence (Q9Y336 whole entry): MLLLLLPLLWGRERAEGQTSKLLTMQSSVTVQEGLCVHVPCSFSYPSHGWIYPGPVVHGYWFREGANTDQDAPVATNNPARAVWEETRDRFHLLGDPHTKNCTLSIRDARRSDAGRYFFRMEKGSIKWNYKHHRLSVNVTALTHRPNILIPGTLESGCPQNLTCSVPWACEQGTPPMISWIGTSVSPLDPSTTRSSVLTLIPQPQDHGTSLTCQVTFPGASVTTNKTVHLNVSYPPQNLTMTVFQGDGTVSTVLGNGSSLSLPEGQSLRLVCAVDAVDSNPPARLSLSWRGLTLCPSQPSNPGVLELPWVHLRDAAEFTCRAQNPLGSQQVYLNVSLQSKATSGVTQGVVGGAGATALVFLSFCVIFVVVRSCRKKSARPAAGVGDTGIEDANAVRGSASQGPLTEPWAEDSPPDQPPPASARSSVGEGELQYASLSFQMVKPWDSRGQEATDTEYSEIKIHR
EXPERIMENT DESCRIPTION: Hs-Siglec9 ALPHAscreen SOP 20170721
Parameters: scale not given: direction of the effect not stated beside the values
RECORDED CONDITIONS: 10 µM
Value expressed in %; do not type the unit.

Example entries and their recorded answers appear below.
>  <MOLECULE>
CC(C)n1cc(CN2CCCN(C(=O)c3cc(Cl)c[nH]3)CC2)cn1

>  <Percent Effect / %>
15.8

$$$$
>  <MOLECULE>
O=C(CCc1nc2cccnc2[nH]1)NCc1cccnc1

>  <Percent Effect / %>
0.97

$$$$
>  <MOLECULE>
CCN(Cc1nc(C(C)C)no1)Cc1cccs1

>  <Percent Effect / %>
6.48

$$$$
>  <MOLECULE>
CS(=O)(=O)NCCCNC(=O)c1cccc(-n2cccc2)c1

>  <Percent Effect / %>
-5

$$$$

What value of Percent Effect has been reported for the following molecule? CNC(=O)CC1CC2(CCN(Cc3nccs3)CC2)c2ccccc21 (stereo not given)
1.43

Any idea what Percent Effect was measured for `CC(C)NC(=O)[C@@H]1CCO[C@@H]2CCN(c3ncccn3)C[C@H]21` ?
0.524

Which Percent Effect value is on record for `Cc1cc(C)n(C2CN(CC(=O)NC3CCOCC3)C2)n1` ?
1.96

Which value of Percent Effect has been reported for CCc1nc(C2CCCN(C(=O)CCn3ccccc3=O)C2)no1 (stereo not given) in the records?
-0.82

Please report the recorded Percent Effect for `CCN(Cc1ccc2c(c1)OCCO2)C(=O)NCc1nc(C)cs1` .
-5.04

Record request: Percent Effect value, item `O=C(c1ccc(O)c(Cl)c1)N1CCC(c2n[nH]c(C3CC3)n2)CC1`
-6.96
